Catalogue of hERG current change (%, negative = inhibition) at 10uM values
biological target: human ether-à-go-go-related gene (hERG) potassium channel (human); assay: primary screen, population patch clamp on CHO cells stably expressing hERG; higher = less effect of the substance;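 note: peak tail current of the secondary pulse compared with the same well before compound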
Sequence (Q12809 whole entry, looked up): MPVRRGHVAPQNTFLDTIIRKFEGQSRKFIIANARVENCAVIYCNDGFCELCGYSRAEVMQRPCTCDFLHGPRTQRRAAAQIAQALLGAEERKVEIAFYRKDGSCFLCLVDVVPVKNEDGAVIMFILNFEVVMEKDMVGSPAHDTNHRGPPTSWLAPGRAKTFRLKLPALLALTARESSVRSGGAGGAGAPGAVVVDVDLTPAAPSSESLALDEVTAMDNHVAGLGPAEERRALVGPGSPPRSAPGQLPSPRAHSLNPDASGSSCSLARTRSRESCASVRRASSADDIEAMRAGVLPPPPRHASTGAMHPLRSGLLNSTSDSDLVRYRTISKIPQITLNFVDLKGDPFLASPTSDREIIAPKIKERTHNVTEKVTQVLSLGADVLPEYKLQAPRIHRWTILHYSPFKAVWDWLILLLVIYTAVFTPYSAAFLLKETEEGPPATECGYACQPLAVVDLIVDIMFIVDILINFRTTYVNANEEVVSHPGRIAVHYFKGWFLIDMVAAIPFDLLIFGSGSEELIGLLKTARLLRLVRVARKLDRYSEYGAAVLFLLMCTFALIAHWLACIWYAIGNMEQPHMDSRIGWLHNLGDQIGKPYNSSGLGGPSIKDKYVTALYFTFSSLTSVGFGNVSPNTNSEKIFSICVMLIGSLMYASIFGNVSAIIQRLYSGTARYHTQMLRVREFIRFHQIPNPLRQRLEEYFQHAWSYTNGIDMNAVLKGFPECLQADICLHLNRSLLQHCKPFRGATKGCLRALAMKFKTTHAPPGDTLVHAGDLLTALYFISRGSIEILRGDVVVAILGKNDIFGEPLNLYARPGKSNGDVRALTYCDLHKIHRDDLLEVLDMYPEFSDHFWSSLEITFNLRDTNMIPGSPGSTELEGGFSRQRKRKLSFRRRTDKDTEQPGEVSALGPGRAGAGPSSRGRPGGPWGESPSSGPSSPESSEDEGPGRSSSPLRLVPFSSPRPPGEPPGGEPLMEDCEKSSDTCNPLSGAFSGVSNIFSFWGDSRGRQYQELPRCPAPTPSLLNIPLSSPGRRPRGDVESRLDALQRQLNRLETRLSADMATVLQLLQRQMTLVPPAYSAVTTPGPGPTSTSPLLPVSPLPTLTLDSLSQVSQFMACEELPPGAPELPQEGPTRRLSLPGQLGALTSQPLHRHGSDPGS
Hit rate of the full screen: of about 310,000 compounds, about 14,000 (4.5%) showed an effect of 50% or more. The effect is printed as a negative number. Only a selection was taken, and strong results are over-represented in it overall.
Numeric answer only, unit % assumed.

// known answers, use as guide
# Smiles Record, Tested Target, Assay Value
data = [
    ("CCc1nc(N2CCN(S(=O)(=O)c3ccc(Br)cc3)CC2)c2c(C)c(C)sc2n1", "human ether-à-go-go-related gene (hERG) potassium channel (human)", -32),
    ("Cc1sc2nc(CN3CCOCC3)nc(NS(=O)(=O)c3ccccc3)c2c1C", "human ether-à-go-go-related gene (hERG) potassium channel (human)", 9.1),
    ("CCCc1nc(N2CCN(S(=O)(=O)c3ccc(Cl)cc3)CC2)c2c(C)c(C)sc2n1", "human ether-à-go-go-related gene (hERG) potassium channel (human)", -17.1),
    ("Cc1nc(N2CCN(S(=O)(=O)c3ccc(F)cc3)CC2)c2c(C)c(C)sc2n1", "human ether-à-go-go-related gene (hERG) potassium channel (human)", -6.58),
]

Moving on to another compound below.
`Cc1ccc(S(=O)(=O)N2CCN(c3nc(CN4CCCC4)nc4sc(C)c(C)c34)CC2)cc1` has a reported hERG current change (%, negative = inhibition) at 10uM of -77.7

Provenance of the data: paper PMC4336329
